Source: patent US20210115124A1

Documented pKd across a set of binders
Target: T1, human VEGF (hVEGF) (human, UniProt P15692 181-395)
T1 construct: also called VEGF-A
T1 sequence: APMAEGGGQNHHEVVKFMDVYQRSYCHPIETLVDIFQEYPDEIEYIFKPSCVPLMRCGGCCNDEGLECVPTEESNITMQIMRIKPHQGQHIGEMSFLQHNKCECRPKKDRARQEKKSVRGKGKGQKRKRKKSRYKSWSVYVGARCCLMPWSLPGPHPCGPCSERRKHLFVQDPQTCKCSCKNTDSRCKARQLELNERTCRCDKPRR
Assay: SPR single-cycle;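 note: fab variants injected over hVEGF immobilized on a CM5 chip (Biacore T200), threefold dilution series from 0.02 to 50 nM, kinetics fitted with a 1:1 Langmuir model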
Expect pKd as a plain number equal to -log10 of the molar concentration.

A selection of reference data follows.
G6.31 LC-A51E (Fab, V domains shown, Fab) VH: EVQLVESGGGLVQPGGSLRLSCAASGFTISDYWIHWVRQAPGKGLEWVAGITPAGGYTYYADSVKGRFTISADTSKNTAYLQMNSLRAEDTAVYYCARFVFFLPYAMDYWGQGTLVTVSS VL: DIQMTQSPSSLSASVGDRVTITCRASQDVSTAVAWYQQKPGKAPKLLIYSESFLYSGVPSRFSGSGSGTDFTLTISSLQPEDFATYYCQQGYGNPFTFGQGTKVEIK	8.57
G6.31 LC-G93E (Fab, V domains shown, Fab) VH: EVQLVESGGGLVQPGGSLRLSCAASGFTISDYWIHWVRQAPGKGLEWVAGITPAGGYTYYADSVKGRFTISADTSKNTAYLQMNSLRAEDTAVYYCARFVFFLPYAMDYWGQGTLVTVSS VL: DIQMTQSPSSLSASVGDRVTITCRASQDVSTAVAWYQQKPGKAPKLLIYSASFLYSGVPSRFSGSGSGTDFTLTISSLQPEDFATYYCQQGYENPFTFGQGTKVEIK	8.22

We next turn to a different binder, shown below.
Which pKd is reported for this binder? G6.31 HC-P41E (Fab, name in Kabat numbering, V domains shown, Fab) VH: EVQLVESGGGLVQPGGSLRLSCAASGFTISDYWIHWVRQAEGKGLEWVAGITPAGGYTYYADSVKGRFTISADTSKNTAYLQMNSLRAEDTAVYYCARFVFFLPYAMDYWGQGTLVTVSS VL: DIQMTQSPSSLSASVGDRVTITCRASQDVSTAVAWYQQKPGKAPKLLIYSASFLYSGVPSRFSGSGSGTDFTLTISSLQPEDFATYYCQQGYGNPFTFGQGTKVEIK
8.44
